test system: LOX IMVI melanoma; assay: NCI-60 one-dose screen, 48 h; settings: 10 µM unless noted
This is part of a sample that, as a whole, favours compounds with a hit. Of some 83,000 tested, about 20% had one in any assay. Activity calls are given as the source filed them. The calls were made as follows: active = growth percent below 10; inactive = the rest.
Your answer must be one of the following: yes (1) (active), no (0) (inactive)

Observe how each entry below is paired with its result.
N#C/C(=C\c1ccc(-c2ccc(Cl)cc2)o1)c1ccc(Cl)cc1 | no (0)
CCOC(=O)c1c2c(n3ccccc13)C(=O)c1ncccc1C2=O | yes (1)
Cc1cccc(NC(=O)CSc2nc3ccc([N+](=O)[O-])cc3[nH]2)c1 | no (0)
COC(=O)c1nc(-c2ccccc2)oc1S(=O)(=O)N1CCC(C(N)=O)CC1 | no (0)
CCCCn1sc(=O)n(Cc2ccc(CNC(=O)OCc3ccc4c(Cl)cc(Cl)c(O)c4n3)cc2)c1=O | no (0)
NNC(=S)N/N=C/c1ccccn1 | no (0)

Kindly consider the entry below.
Write down the call the test reported for this molecule. Item: COc1ccc(C(c2cc(OC)c(OC)c(OC)c2)N2CCCC2)cc1 (stereo not given)
no (0)

###

test system: NCI/ADR-RES ovarian; experiment: NCI-60 one-dose screen, 48 h; details: 10 µM unless noted
The panel holds about 83,000 compounds, 20% with a hit somewhere; the sample as a whole holds those more often. Activity calls are given as the source filed them. Rule for the calls: active = growth percent below 10; inactive = the rest.
Your answer must be one of the following: True = active, False = inactive

Observe how each entry below is paired with its result.
COC(=O)c1ccc2c(c1)c1c(C)c3ccncc3c(C)c1n2C | False
CCCn1c(=S)sc2c1nc(C)n1c(Nc3ccccc3)nnc21 | False

Write down the call the test reported for this compound. Item: "C/C(=N\O)C(=O)NCCCCCC(=O)Nc1ccccc1"
False

Write down the call the test reported for this compound. Item: "N#Cc1nc(-c2ccc(F)cc2)oc1S(=O)(=O)N1CCN(c2ccc(F)cc2)CC1"
False

Write down the call the test reported for this compound. Item: "O=C(N=Nc1c(O)[nH]c2ccccc12)Nc1ccc(Cl)cc1"
False

Write down the call the test reported for this compound. Item: "C=CCn1c(SCC(=O)Nc2ccc(C(=O)/C=C/c3cc(OC)c(OC)c(OC)c3)cc2)nnc1-c1cc(-c2ccc(OC)cc2)nc2ccccc12"
False

Write down the call the test reported for this compound. Item: "CN1CCN(Cc2ccc(NC(=O)c3cncc(C#Cc4cnn5ccccc45)c3)cc2C(F)(F)F)CC1"
True

Write down the call the test reported for this compound. Item: "Cc1ccc(/C=C/C(=O)c2ccc(NC(=O)CSc3nc4c([nH]3)c(=O)n(C)c(=O)n4C)cc2)c(C)c1"
False

Write down the call the test reported for this compound. Item: "Cc1ccc(/C=C(\C#N)C(=O)Nc2ncc(Cc3cc(Cl)ccc3Cl)s2)o1"
False

###

test system: HCT-116 colon; experiment: NCI-60 one-dose screen, 48 h; conditions: 10 µM unless noted
About 83,000 compounds went through this panel and 20% of them were active in at least one assay; those are over-represented in the sample as a whole. Active and inactive are the calls of the source. Rule for the calls: active = growth percent below 10; inactive = the rest.
Your answer must be one of the following: active, inactive

Observe how each entry below is paired with its result.
O=C(Cn1nnc([N+](=O)[O-])n1)c1ccccc1 | inactive
O=C(CN1C(=O)/C(=C/c2ccco2)SC1=S)NCCc1c[nH]c2ccc(F)cc12 | inactive
COc1cc(Nc2c3ccc(Cl)cc3nc3ccc(OC)cc23)c2ncccc2c1 | inactive
CCCCC(=O)Nc1ncc(Cc2ccccc2Cl)s1 | inactive
COc1cc(-c2nc(NC(C)=O)sc2-c2ccnc(NCCNS(=O)(=O)c3ccccc3)n2)ccc1Cl | inactive
CNCc1cccc2c1OCCOCCN(C)C(=O)CN(C)S(=O)(=O)c1ccc(cc1)-c1cnc(N)c(n1)C(=O)N2 | active

Write down the call the test reported for this compound. Item: "COc1ccc(Cn2cc(C(=O)N=Nc3c(O)[nH]c4c(Cl)cccc34)nn2)cc1"
inactive

Write down the call the test reported for this compound. Item: "COc1ccc(NC(=O)c2ccc(C(=O)Nc3ccc(OC)cc3OC)cc2)c(OC)c1"
inactive

Write down the call the test reported for this compound. Item: "COc1cc(/C=N/Nc2ccccc2F)cc(OC)c1OC"
inactive

Write down the call the test reported for this compound. Item: C=CCOC(=O)C1=C(C)NC(=O)NC1c1c(Cl)n(C)c2ccccc12 (stereo unspecified)
inactive

Write down the call the test reported for this compound. Item: "Cc1cccc(NC(=O)CSc2nc3ccc([N+](=O)[O-])cc3[nH]2)c1"
inactive

Write down the call the test reported for this compound. Item: "Cn1cc(-c2nc(-c3c[nH]c4ccncc34)cs2)c2cc(Br)ccc21"
active

Write down the call the test reported for this compound. Item: Cc1nc2sc(C(=O)Nc3ccc(Cl)cc3)c(N)c2cc1C(O)c1ccccc1 (stereo unspecified)
inactive

Write down the call the test reported for this compound. Item: COc1ccc(C2CC(c3ccc4c(c3)OCO4)=Nc3c(N)ncnc3N2)cc1 (stereo unspecified)
inactive

Origin of the recorded values: PubChem BioAssay (NCI)
